// data source = patent US9321762B2

# target.desc: EGFR kinase (Homo sapiens, UniProt P00533)
# Construct: EGFR kinase domain alone, Millipore; purchased Millipore
# Sequence (P00533 712-979 limits assumed): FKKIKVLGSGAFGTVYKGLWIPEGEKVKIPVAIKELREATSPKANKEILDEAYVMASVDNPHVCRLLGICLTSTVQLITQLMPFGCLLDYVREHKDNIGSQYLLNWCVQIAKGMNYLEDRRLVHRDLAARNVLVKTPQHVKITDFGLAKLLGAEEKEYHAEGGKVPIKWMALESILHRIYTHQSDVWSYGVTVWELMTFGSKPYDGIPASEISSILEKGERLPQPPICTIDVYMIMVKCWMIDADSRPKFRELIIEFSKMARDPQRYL
# test.details: EGFR radiometric kinase assay
# Assay type: biochemical
# assay.conditions: class symbols; 100 μM ATP; read-out: Inhibition activity, IC50 EGFR
pIC50: −log10 of the molar value.
Each entry below carries its recorded pIC50.

Guide cases for pIC50, answers given:
CCCS(=O)(=O)Nc1ccc(F)c(Nc2ncnc3ccc(-c4cccc(F)n4)cc23)c1F : 5.52 to 6.00
CCCS(=O)(=O)Nc1ccc(F)c(Nc2ncnc3ccc(-c4ccnc(F)c4)cc23)c1F : 5.52 to 6.00
CCCS(=O)(=O)Nc1ccc(F)c(Nc2ncnc3cc(OCCOC)c(-c4cccnc4F)cc23)c1F : 6.00 to 6.52
CCCS(=O)(=O)Nc1ccc(F)c(Nc2ncnc3ccc(-c4cccc(OCCOC)n4)cc23)c1F : 5.52 to 6.00

// below: pIC50 requested for another compound
Qu. Request: pIC50, test system EGFR kinase (Homo sapiens, UniProt P00533), entry `CCCS(=O)(=O)Nc1ccc(F)c(Nc2ncnc3ccc(-c4ccc(N5CCOCC5)nc4)cc23)c1F`
Ans. 5.52 to 6.00

----------
Each entry below carries its recorded IC50.
# target.desc: B-Raf(V600E) kinase (Homo sapiens, UniProt P15056, V600E)
# Sequence (P15056 whole entry V600E): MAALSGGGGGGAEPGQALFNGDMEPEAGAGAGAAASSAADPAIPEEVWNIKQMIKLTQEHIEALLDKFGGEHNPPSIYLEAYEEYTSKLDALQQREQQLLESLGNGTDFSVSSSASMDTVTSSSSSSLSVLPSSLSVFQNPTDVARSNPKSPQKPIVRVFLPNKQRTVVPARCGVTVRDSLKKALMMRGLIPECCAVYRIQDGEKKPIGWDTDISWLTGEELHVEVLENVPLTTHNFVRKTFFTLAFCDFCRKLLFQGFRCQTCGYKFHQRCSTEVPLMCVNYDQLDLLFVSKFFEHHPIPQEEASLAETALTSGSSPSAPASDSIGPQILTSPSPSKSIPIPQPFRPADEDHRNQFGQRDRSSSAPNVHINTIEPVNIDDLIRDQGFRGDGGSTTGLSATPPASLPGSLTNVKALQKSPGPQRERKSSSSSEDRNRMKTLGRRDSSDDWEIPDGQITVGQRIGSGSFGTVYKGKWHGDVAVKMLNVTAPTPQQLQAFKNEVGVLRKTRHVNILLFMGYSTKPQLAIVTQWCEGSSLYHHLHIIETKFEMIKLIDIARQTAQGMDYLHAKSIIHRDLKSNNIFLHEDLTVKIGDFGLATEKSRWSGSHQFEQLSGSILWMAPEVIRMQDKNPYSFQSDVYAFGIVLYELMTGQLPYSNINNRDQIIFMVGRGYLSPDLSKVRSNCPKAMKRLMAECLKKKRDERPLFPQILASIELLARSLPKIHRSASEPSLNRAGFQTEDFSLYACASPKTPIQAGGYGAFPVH
# test.details: B-Raf(V600E) kinase assay ([33P] incorporation into MEK1(K97R))
# assay.conditions: class symbols; 8 μM ATP; read-out: IC50 against B-Raf(V600E) kinase

CCCS(=O)(=O)Nc1ccc(F)c(Nc2ncnc3ccc(-c4cnc(N(C)C)nc4)cc23)c1F [compound 51] : 300 to 1000 nM

Qu. I am curious: what IC50 value has been reported for CCCS(=O)(=O)Nc1ccc(F)c(Nc2ncnc3ccc(-c4cnc(OC)c([N+](=O)[O-])c4)cc23)c1F [compound 58] ?
Ans. < 300 nM

Qu. Subsequent entry: CCCS(=O)(=O)Nc1ccc(F)c(Nc2ncnc3ccc(-c4ccc(OC)nc4)cc23)c1F [compound 27]
Ans. < 300 nM

Qu. Subsequent entry: CCCS(=O)(=O)Nc1ccc(F)c(Nc2ccnc3ccc(-c4cccnc4F)cc23)c1F [compound 13]
Ans. < 300 nM

----------
# target.desc: B-Raf kinase (Homo sapiens, UniProt P15056)
# Construct: purchased Upstate Biotechnology
# Sequence (P15056 whole entry): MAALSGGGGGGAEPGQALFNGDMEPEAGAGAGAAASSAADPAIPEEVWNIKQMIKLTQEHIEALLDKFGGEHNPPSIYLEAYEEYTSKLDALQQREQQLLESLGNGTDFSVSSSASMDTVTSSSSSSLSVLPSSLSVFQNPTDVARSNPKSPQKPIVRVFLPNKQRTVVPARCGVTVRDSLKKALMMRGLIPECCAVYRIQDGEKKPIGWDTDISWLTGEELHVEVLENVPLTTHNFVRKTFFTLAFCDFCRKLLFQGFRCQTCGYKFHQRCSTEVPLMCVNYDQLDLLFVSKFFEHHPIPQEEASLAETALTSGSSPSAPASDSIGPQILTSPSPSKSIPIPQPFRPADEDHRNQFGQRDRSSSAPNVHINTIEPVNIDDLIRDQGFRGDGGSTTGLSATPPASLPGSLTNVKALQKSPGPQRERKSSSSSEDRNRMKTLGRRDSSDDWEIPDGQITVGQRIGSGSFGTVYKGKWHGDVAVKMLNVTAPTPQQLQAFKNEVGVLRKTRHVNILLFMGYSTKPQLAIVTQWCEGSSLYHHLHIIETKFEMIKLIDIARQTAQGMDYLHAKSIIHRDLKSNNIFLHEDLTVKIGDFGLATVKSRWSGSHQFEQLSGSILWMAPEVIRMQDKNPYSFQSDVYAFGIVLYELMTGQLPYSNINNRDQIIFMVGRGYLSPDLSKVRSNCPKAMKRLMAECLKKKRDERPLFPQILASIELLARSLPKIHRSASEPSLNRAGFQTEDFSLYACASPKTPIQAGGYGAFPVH
# test.details: B-Raf kinase assay ([33P] incorporation into MEK1(K97R))
# Assay type: biochemical
# assay.conditions: class symbols; 8 μM ATP; read-out: IC50 against B-Raf kinase
measurement.label: IC50

CCCS(=O)(=O)Nc1ccc(F)c(Nc2ncnc3cc(OCCOC)c(-c4cccnc4F)cc23)c1F : < 300 nM
CCCS(=O)(=O)Nc1ccc(F)c(Nc2ncnc3ccc(-c4cn[nH]c4)cc23)c1F : < 300 nM
CCCS(=O)(=O)Nc1ccc(F)c(Nc2ncnc3ccc(-c4ccc(N(C)C)nc4)cc23)c1F : 300 to 1000 nM
CCCS(=O)(=O)Nc1ccc(F)c(Nc2ncnc3ccc(-c4cccnc4OC)cc23)c1F : 1000 to 10000 nM
CCCS(=O)(=O)Nc1ccc(F)c(Nc2ncnc3ccc(-c4ccc(=O)[nH]c4)cc23)c1F : < 300 nM

// below: IC50 requested for another molecule
Qu. Request: IC50, test system B-Raf kinase (Homo sapiens, UniProt P15056), entry `CCCCS(=O)(=O)Nc1ccc(F)c(Nc2ncnc3ccc(-c4cccnc4F)cc23)c1F`
Ans. < 300 nM

----------
# target.desc: C-Raf kinase (Homo sapiens, UniProt P04049)
# Sequence (P04049 whole entry): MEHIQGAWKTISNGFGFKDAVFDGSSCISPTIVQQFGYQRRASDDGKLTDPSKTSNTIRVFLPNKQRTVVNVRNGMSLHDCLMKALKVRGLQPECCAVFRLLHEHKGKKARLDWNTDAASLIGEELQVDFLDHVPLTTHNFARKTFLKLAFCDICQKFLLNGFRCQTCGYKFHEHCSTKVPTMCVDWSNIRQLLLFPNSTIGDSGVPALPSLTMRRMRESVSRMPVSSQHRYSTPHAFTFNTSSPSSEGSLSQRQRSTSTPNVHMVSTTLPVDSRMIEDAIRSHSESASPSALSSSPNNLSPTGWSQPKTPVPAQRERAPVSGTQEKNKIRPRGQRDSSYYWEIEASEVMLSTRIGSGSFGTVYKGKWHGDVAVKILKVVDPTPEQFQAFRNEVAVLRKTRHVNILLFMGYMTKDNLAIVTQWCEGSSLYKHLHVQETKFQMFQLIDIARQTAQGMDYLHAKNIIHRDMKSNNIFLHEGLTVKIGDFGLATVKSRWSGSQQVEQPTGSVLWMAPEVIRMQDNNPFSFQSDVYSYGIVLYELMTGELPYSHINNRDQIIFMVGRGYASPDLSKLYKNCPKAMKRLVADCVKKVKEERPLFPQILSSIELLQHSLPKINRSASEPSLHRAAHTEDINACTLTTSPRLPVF
# test.details: C-Raf kinase assay ([33P] incorporation into MEK1(K97R))
# assay.conditions: class symbols; 8 μM ATP; read-out: IC50 against C-Raf kinase
pIC50: −log10 of the molar value.
measurement.label: pIC50

Guide cases for pIC50, answers given:
CCCS(=O)(=O)Nc1ccc(F)c(C(=O)c2ncnc3ccc(-c4cccnc4F)cc23)c1F : > 6.52
CCCS(=O)(=O)Nc1ccc(F)c(Nc2ncnc3ccc(-c4ccc(N(C)C)nc4)cc23)c1F : 6.00 to 6.52
CCCS(=O)(=O)Nc1ccc(F)c(Nc2ncnc3ccc(-c4cnc(N)nc4)cc23)c1F : 6.00 to 6.52
CCCS(=O)(=O)Nc1ccc(F)c(Nc2ccnc3ccc(-c4ccncc4)cc23)c1F : > 6.52
CCCS(=O)(=O)Nc1ccc(F)c(Nc2ncnc3ccc(-c4cnc(N(C)C)nc4)cc23)c1F : 5.00 to 6.00

Qu. Request: pIC50, test system C-Raf kinase (Homo sapiens, UniProt P04049), entry `CCCS(=O)(=O)Nc1ccc(F)c(Nc2ncnc3ccc(-c4cccnc4F)cc23)c1F`
Ans. > 6.52

Qu. Subsequent entry: `CCCS(=O)(=O)Nc1ccc(F)c(Nc2ncnc3cc(OC)c(-c4cccnc4F)cc23)c1F`
Ans. > 6.52

Qu. Subsequent entry: `CCCS(=O)(=O)Nc1ccc(F)c(Nc2ncnc3ccc(-c4cccnc4Cl)cc23)c1F`
Ans. > 6.52

Qu. Subsequent entry: `CCCS(=O)(=O)Nc1ccc(F)c(Nc2ncnc3ccc(-c4ccnc(F)c4)cc23)c1F`
Ans. 6.00 to 6.52

Qu. Subsequent entry: `CCCS(=O)(=O)Nc1ccc(F)c(Nc2ncnc3ccc(-c4cccc(OCCN(C)C)n4)cc23)c1F`
Ans. 5.00 to 6.00

----------
# target.desc: EGFR kinase (Homo sapiens)
# Construct: EGFR kinase domain alone, Millipore; purchased Millipore
# test.details: EGFR radiometric kinase assay
# Format: biochemical
# assay.conditions: class symbols; 100 μM ATP; read-out: Inhibition activity, IC50 EGFR
# Protocol: The inhibitory activity against VEGFR2 or EGFR was determined by radiometric kinase assay. […] Reactions were incubated at 30° C. for 30 min and stopped by adding 3% phosphoric acid, harvested onto a 96-well GF/B UniFilter (PerkinElmer) using a unifilter harvester (PerkinElmer), and counted with a TopCount microplate scintillation counter (PerkinElmer). […]
measurement.label: IC50

CCCS(=O)(=O)Nc1ccc(F)c(Nc2ncnc3ccc(-c4ccncc4)cc23)c1F : 300 to 1000 nM

Qu. I am curious: what IC50 value has been reported for `CCCS(=O)(=O)Nc1ccc(F)c(Nc2ccnc3ccc(-c4ccncc4)cc23)c1F` ?
Ans. 1000 to 3000 nM

----------
# target.desc: B-Raf kinase (Homo sapiens, UniProt P15056)
# Construct: purchased Upstate Biotechnology
# test.details: B-Raf kinase assay ([33P] incorporation into MEK1(K97R))
# Assay type: biochemical
# assay.conditions: class symbols; 8 μM ATP; read-out: IC50 against B-Raf kinase
pIC50: −log10 of the molar value.
Each entry below carries its recorded pIC50.

Guide cases for pIC50, answers given:
CCCS(=O)(=O)Nc1ccc(F)c(Nc2ncnc3ccc(-c4ccc(N5CCOCC5)nc4)cc23)c1F : > 6.52
CCCS(=O)(=O)Nc1ccc(F)c(Nc2ncnc3ccc(-c4cnc(N)nc4)cc23)c1F : > 6.52

Qu. I am curious: what pIC50 value has been reported for `CCCS(=O)(=O)Nc1ccc(F)c(Nc2ncnc3ccc(-c4cnc(N)c(C)c4)cc23)c1F` ?
Ans. 6.00 to 6.52

Qu. Subsequent entry: `CCCS(=O)(=O)Nc1ccc(F)c(Nc2ncnc3ccc(-c4cccc(N5CCOCC5)n4)cc23)c1F`
Ans. 6.00 to 6.52

Qu. Subsequent entry: `CCCS(=O)(=O)Nc1ccc(F)c(Nc2ncnc3ccc(-c4cccc(C#N)n4)cc23)c1F`
Ans. > 6.52

Qu. Subsequent entry: `CCCS(=O)(=O)Nc1ccc(F)c(Nc2ncnc3ccc(-c4ccc(OCCOC)nc4)cc23)c1F`
Ans. 6.00 to 6.52

Qu. Subsequent entry: `CCCS(=O)(=O)Nc1ccc(F)c(Nc2ncnc3ccc(-c4cnc(OC)c([N+](=O)[O-])c4)cc23)c1F`
Ans. > 6.52

----------
# target.desc: EGFR kinase (Homo sapiens, UniProt P00533)
# Construct: EGFR kinase domain alone, Millipore; purchased Millipore
# test.details: EGFR radiometric kinase assay
# Type: biochemical
# assay.conditions: class symbols; 100 μM ATP; read-out: Inhibition activity, IC50 EGFR
pIC50: −log10 of the molar value.
Each entry below carries its recorded pIC50.

CCCS(=O)(=O)Nc1ccc(F)c(Nc2ncnc3cc(OC)c(-c4cccnc4F)cc23)c1F : 6.00 to 6.52
CCCS(=O)(=O)Nc1ccc(F)c(Nc2ncnc3ccc(-c4cccc(C(F)(F)F)n4)cc23)c1F : 6.00 to 6.52
CCCS(=O)(=O)Nc1ccc(F)c(Nc2ncnc3cc(F)c(-c4ccncc4)cc23)c1F : 5.52 to 6.00

Qu. Request: pIC50, test system EGFR kinase (Homo sapiens, UniProt P00533), entry `CCCS(=O)(=O)Nc1ccc(F)c(Nc2ncnc3ccc(-c4cn[nH]c4)cc23)c1F`
Ans. 6.00 to 6.52

----------
# target.desc: B-Raf kinase (Homo sapiens, UniProt P15056)
# Construct: purchased Upstate Biotechnology
# test.details: B-Raf kinase assay ([33P] incorporation into MEK1(K97R))
# Type: biochemical
# assay.conditions: class symbols; 8 μM ATP; read-out: IC50 against B-Raf kinase
Each entry below carries its recorded IC50.

CCCS(=O)(=O)Nc1ccc(F)c(Nc2ncnc3cc(OC)c(-c4cccnc4F)cc23)c1F : < 0.3 µM
CCCS(=O)(=O)Nc1ccc(F)c(Nc2ncnc3ccc(-c4cccc(OC)n4)cc23)c1F : < 0.3 µM
CCCS(=O)(=O)Nc1ccc(F)c(Nc2ncnc3ccc(-c4cccnc4F)cc23)c1Cl : 1 to 10 µM
CCCS(=O)(=O)Nc1ccc(F)c(Nc2ncnc3ccc(-c4ccnc(OCCN(C)C)c4)cc23)c1F : < 0.3 µM
CCCS(=O)(=O)Nc1ccc(F)c(Nc2ncnc3ccc(-c4ccc[nH]c4=O)cc23)c1F : 1 to 10 µM

Qu. I am curious: what IC50 value has been reported for `CCCS(=O)(=O)Nc1ccc(F)c(Nc2ncnc3ccc(-c4ccc(OCCN(C)C)nc4)cc23)c1F` ?
Ans. < 0.3 µM

Qu. Subsequent entry: `CCCS(=O)(=O)Nc1ccc(F)c(Nc2ncnc3ccc(-c4ccc(OC)nc4)cc23)c1F`
Ans. 0.3 to 1 µM

Qu. Subsequent entry: `CS(=O)(=O)Nc1ccc(F)c(Nc2ncnc3ccc(-c4cccnc4F)cc23)c1F`
Ans. 1 to 10 µM
